system: 186277-243-T-J2-PDC multi-cell spheroid viability; experiment: Anticancer human tumor 186277-243-T-J2-PDC patient-derived colon adenocarcinoma cell line growth inhibition [PI3K]; conditions: second compound 0.316 µM; first compound 3.16 µM; active = viability on the fitted dose curve at most 10% of control; inactive = the rest;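 also: spheroids exposed to compounds for seven days before viability reading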
Pick one: active, inactive

INSERT INTO measurements (molecule, discrete_label) VALUES
  ('C#Cc1c(F)ccc2cc(O)cc(-c3ncc4c(N5CC6CCC(C5)N6)nc(OCC56CCCN5CC(F)C6)nc4c3F)c12 (stereo not drawn) + Cc1nc(NC(=O)N2CCCC2C(N)=O)sc1-c1ccnc(C(C)(C)C(F)(F)F)c1', 'active'),
  ('CC(Cn1ccc(-c2ccc(C#N)c(Cl)c2)n1)NC(=O)c1cc(C(C)O)[nH]n1 (stereo not drawn) + CC(Nc1ncnc2nc[nH]c12)c1cc2cccc(Cl)c2c(=O)n1-c1ccccc1', 'inactive'),
  ('CC(C)NCC(C(=O)N1CCN(c2ncnc3c2C(C)CC3O)CC1)c1ccc(Cl)cc1 (stereo not drawn) + COc1c(OCCCN2CCOCC2)ccc2c3n(c(=NC(=O)c4cnc(N)nc4)nc12)CCN3', 'active'),
  ('Cn1nccc1Nc1nccc(-c2ccn(C(CO)c3ccc(Cl)c(F)c3)c(=O)c2)n1 (stereo not drawn) + COc1c(OCCCN2CCOCC2)ccc2c3n(c(=NC(=O)c4cnc(N)nc4)nc12)CCN3', 'active'),
  ('CNC(=O)c1ccc(N2C(=S)N(c3ccc(C#N)c(C(F)(F)F)c3)C(=O)C2(C)C)cc1F + CC(Nc1ncnc2nc[nH]c12)c1cc2cccc(Cl)c2c(=O)n1-c1ccccc1', 'inactive'),
  ('CNC(=O)c1ccc(N2C(=S)N(c3ccc(C#N)c(C(F)(F)F)c3)C(=O)C2(C)C)cc1F + CC(Nc1ccc2c(c1)OCCn1cc(N3C(=O)OCC3C(F)F)nc1-2)C(N)=O', 'inactive'),
  ('CC(Cn1ccc(-c2ccc(C#N)c(Cl)c2)n1)NC(=O)c1cc(C(C)O)[nH]n1 (stereo not drawn) + CC(Nc1ccc2c(c1)OCCn1cc(N3C(=O)OCC3C(F)F)nc1-2)C(N)=O', 'inactive'),
  ('Cn1ncc(Cl)c1-c1cc(C(=O)NC(CN)Cc2cccc(F)c2)sc1Cl (stereo not drawn) + CC(Nc1ncnc2nc[nH]c12)c1cc2cccc(Cl)c2c(=O)n1-c1ccccc1', 'inactive');

Prompt: Test call for this molecule, please: Cn1ncc(Cl)c1-c1cc(C(=O)NC(CN)Cc2cccc(F)c2)sc1Cl (stereo not drawn) + CC(Nc1ccc2c(c1)OCCn1cc(N3C(=O)OCC3C(F)F)nc1-2)C(N)=O
Completion: active

Prompt: Could you do the same for C#Cc1c(F)ccc2cc(O)cc(-c3ncc4c(N5CC6CCC(C5)N6)nc(OCC56CCCN5CC(F)C6)nc4c3F)c12 (stereo not drawn) + CC(Nc1ncnc2nc[nH]c12)c1cc2cccc(Cl)c2c(=O)n1-c1ccccc1 , please?
Completion: inactive

Prompt: Could you do the same for C#Cc1c(F)ccc2cc(O)cc(-c3ncc4c(N5CC6CCC(C5)N6)nc(OCC56CCCN5CC(F)C6)nc4c3F)c12 (stereo not drawn) + CC(Nc1ccc2c(c1)OCCn1cc(N3C(=O)OCC3C(F)F)nc1-2)C(N)=O , please?
Completion: active

Prompt: Could you do the same for CC(Cn1ccc(-c2ccc(C#N)c(Cl)c2)n1)NC(=O)c1cc(C(C)O)[nH]n1 (stereo not drawn) + Cc1nc(NC(=O)N2CCCC2C(N)=O)sc1-c1ccnc(C(C)(C)C(F)(F)F)c1 , please?
Completion: inactive

Prompt: Could you do the same for CC1(C)CCC(CN2CCN(c3ccc(C(=O)NS(=O)(=O)c4ccc(NCC5CCOCC5)c([N+](=O)[O-])c4)c(Oc4cnc5[nH]ccc5c4)c3)CC2)=C(c2ccc(Cl)cc2)C1 + CC(Nc1ccc2c(c1)OCCn1cc(N3C(=O)OCC3C(F)F)nc1-2)C(N)=O , please?
Completion: inactive
